Test: MTT cell viability assay on normal Vero cells (selectivity)
Assay type: cell-based
Conditions: African green monkey, Vero cells (normal kidney cells), 250 ug/ml
Please provide measured viability at 48 h, 250 ug/ml for the entries that follow.
Express it in %; write the number only.

// query Answer with reported viability at 48 h, 250 ug/ml of COc1cc(/C=C/C(=O)O)ccc1O [Compound 2, Ferulic acid]
// result 33.2

// query Report viability at 48 h, 250 ug/ml for O=C(O)/C=C/c1ccc(O)c(O)c1 [Compound 1, Caffeic acid]
// result 22.9

----------
Assay: MTT cell viability assay on normal Vero cells (selectivity)
Type: cell-based
Details: African green monkey, Vero cells (normal kidney cells), 31.25 ug/ml
OBSERVABLE: viability at 48 h, 31.25 ug/ml (%)
A number alone suffices; assume %.

// query Query viability at 48 h, 31.25 ug/ml for O=C(O)/C=C/c1ccc(O)c(O)c1 [Compound 1, Caffeic acid]
// result 99

// query Look up and report measured viability at 48 h, 31.25 ug/ml for this entry: COc1cc(/C=C/C(=O)O)ccc1O [Compound 2, Ferulic acid]
// result 99.6
